Hey, just so you know, these numbers are from PubChem BioAssay (NCI).

PROTOCOL: NCI Yeast Anticancer Drug Screen. Data for the mec2-1 strain (AID 157)
COND: S. cerevisiae mec2-1 strain, at 50.0 µM (retest, dose inferred, filed as 5.0), stronger effect = higher value
About 79,000 compounds went through this panel and 15% of them were active in at least one assay; those are over-represented in the sample as a whole. Activity calls are given as the source filed them. No stated cut-off is given here; in the data, active means growth inhibition above about 70%; inactive means the rest.
So I've got a bunch of compounds here, and I need their growth inhibition values.

-- ask Return reported growth inhibition; argument: CC(=O)OC(OC(C)=O)c1ccc([N+](=O)[O-])o1
-- reply -22% (inactive)

-- ask Return reported growth inhibition; argument: C(=N\N=C\c1ccc2c(c1)OCO2)/c1ccc2c(c1)OCO2
-- reply 2% (inactive)

-- ask Return reported growth inhibition; argument: O=c1cc(N=Nc2ccc(Cl)c(Cl)c2)[nH]c(=O)[nH]1
-- reply 97% (active)

-- ask Return reported growth inhibition; argument: CN(C)c1ccc(C2(c3ccc(N(C)C)cc3)OC(=O)c3ccccc32)cc1
-- reply -6% (inactive)

-- ask Return reported growth inhibition; argument: CCn1c2nc(=O)n(C)c(=O)c-2[n+]([O-])c2cc(C)ccc21
-- reply 33% (inactive)

---

So I've got a bunch of molecules here, and I need their growth inhibition values.
PROTOCOL: NCI Yeast Anticancer Drug Screen. Data for the sgs1 mgt1 strain (AID 161);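 further: 0% = growth of cultures given vehicle only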
COND: S. cerevisiae sgs1 mgt1 strain, at 5.0 µM (retest, dose inferred, filed as 0.5), stronger effect = higher value
About 79,000 compounds went through this panel and 15% of them were active in at least one assay; those are over-represented in the sample as a whole.
State the answer as a number, implicitly in %.

-- ask Return reported growth inhibition; argument: Ic1[nH]c(I)c(I)c1I
-- reply 10

-- ask Return reported growth inhibition; argument: ClC1c2ccccc2Cc2cccnc21 (stereo not given)
-- reply 10

-- ask Return reported growth inhibition; argument: CCCC(C)OC(=O)Nc1cccc(Cl)c1 (stereo not given)
-- reply -2

-- ask Return reported growth inhibition; argument: CCCn1c(=O)c2ccccc2[n+]2c(-c3ccc([N+](=O)[O-])cc3)csc12
-- reply 1

-- ask Return reported growth inhibition; argument: C=C(C)/C([O-])=N/[N+](C)(C)CC(O)CCCCCCCCCCCC (stereo not given)
-- reply 60

-- ask Return reported growth inhibition; argument: O=C(N/C(=C/c1ccc(Cl)cc1Cl)c1nc2ccccc2s1)c1ccccc1
-- reply 56

-- ask Return reported growth inhibition; argument: COC1/C=C\OC2(C)Oc3c(C)c(O)c4c(c3C2=O)C(=O)C=C(NC(=O)C(C)=C/C=C\C(C)C(O)C(C)C2OC(C)(C)OC(C1C)C2C)C4=O (stereo not given)
-- reply 1

-- ask Return reported growth inhibition; argument: Cc1cc(C)c([O-])c(-[n+]2c(-c3ccccc3)cc(-c3ccccc3)cc2-c2ccccc2)c1
-- reply 22

-- ask Return reported growth inhibition; argument: c1ccc2nc(C[n+]3cccc4ccccc43)ccc2c1
-- reply 70

-- ask Return reported growth inhibition; argument: NC(=S)N/N=C1\NC(=O)/C(=C/c2ccc3c(c2)OCO3)S1
-- reply 13

---

PROTOCOL: NCI Yeast Anticancer Drug Screen. Data for the mlh1 rad18 strain (AID 175)
COND: S. cerevisiae mlh1 rad18 strain growth inhibition; at 50.0 µM; stronger effect = higher value
Compounds without any hit were thinned out: in the full panel of roughly 79,000, 15% have a hit.
So I've got a bunch of compounds here, and I need their growth inhibition values.
State the answer as a number, implicitly in %.

-- ask Return reported growth inhibition; argument: COc1cccc2c1C(=O)c1c(O)c3c(c(O)c1C2=O)CC(O)(C(C)=O)CC3OC1CC(NCC2(O)OCC(O)C2O)C(O)C(C)O1 (stereo not given)
-- reply 91

-- ask Return reported growth inhibition; argument: COC1OC(=O)CC1C1CC=C2C3CCC4CC(O)CCC4(C)C3CCC21C (stereo not given)
-- reply 88.4

-- ask Return reported growth inhibition; argument: O=C(O)Cc1c[nH]c2ccccc12
-- reply 91.2

-- ask Return reported growth inhibition; argument: O=C1C=CC(=O)N1c1ccc(Cl)cc1
-- reply 92

-- ask Return reported growth inhibition; argument: CCn1c2ccc(N)cc2c2c(N)c(-n3cccc3)ccc21
-- reply 91.5

---

So I've got a bunch of compounds here, and I need their growth inhibition values.
PROTOCOL: NCI Yeast Anticancer Drug Screen. Data for the rad50 strain (AID 155);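 further: 0% = growth of vehicle-only cultures of the same strain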
COND: S. cerevisiae rad50 strain growth inhibition; at 50.0 µM; stronger effect = higher value
The panel holds about 79,000 compounds, 15% with a hit somewhere; the sample as a whole holds those more often. Activity calls are given as the source filed them. Cut-off read from the data, not from the text of the source: active = growth inhibition above about 70%; inactive = the rest.

-- ask Return reported growth inhibition; argument: Cc1ccc(C(=O)C(CN(C)C)CN(C)C)cc1
-- reply 83.7% (active)

-- ask Return reported growth inhibition; argument: COc1ccc(C(c2ccccc2C(=O)O)c2ccc(OC)c3ccccc23)c2ccccc12
-- reply 59.6% (inactive)

-- ask Return reported growth inhibition; argument: C#CCCCCCOC(=O)c1cc([N+](=O)[O-])cc([N+](=O)[O-])c1
-- reply 98.5% (active)

-- ask Return reported growth inhibition; argument: CC(C)(C)C(=O)CC(Cc1nccc2ccccc12)c1ccco1 (centres undefined)
-- reply 98.7% (active)

---

PROTOCOL: NCI Yeast Anticancer Drug Screen. Data for the sgs1 mgt1 strain (AID 161);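 further: 0% = growth of cultures given vehicle only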
COND: S. cerevisiae sgs1 mgt1 strain, at 50.0 µM (retest, dose inferred, filed as 5.0), stronger effect = higher value
Compounds without any hit were thinned out: in the full panel of roughly 79,000, 15% have a hit. Calls of active or inactive are those of the source. No stated cut-off is given here; in the data, active means growth inhibition above about 70%; inactive means the rest.
RECORDED_METRIC: growth inhibition

-- ask Return reported growth inhibition; argument: Cc1ccc(NC(=S)SCc2ccc3c(c2)OCO3)cc1Cl
-- reply 98% (active)

-- ask Return reported growth inhibition; argument: Cc1nc2ccc(NCCN(C)C)c3c(=O)c4cc(O)ccc4n1c23
-- reply 16% (inactive)

-- ask Return reported growth inhibition; argument: COc1ccc(C2c3cc4c(cc3OC(O)C2C)OCO4)c(OC)c1 (configuration not stated)
-- reply 95% (active)

-- ask Return reported growth inhibition; argument: CC(=O)N1CCCC2=C1CCCCCCCCCC2
-- reply 1% (inactive)

-- ask Return reported growth inhibition; argument: C[N+](C)(C)CC(=O)N/N=C(\C(=O)NC1=C(Cl)C(=O)c2ccccc2C1=O)C(C#N)c1nc(-c2ccc([N+](=O)[O-])cc2)cs1 (configuration not stated)
-- reply 97% (active)

-- ask Return reported growth inhibition; argument: NC(=S)N/N=C1\NC(=O)/C(=C/c2ccc3c(c2)OCO3)S1
-- reply 13% (inactive)

-- ask Return reported growth inhibition; argument: CCN(CC)CCOc1ccc(C(O)(Cc2ccc(Cl)cc2)c2ccccc2)cc1 (configuration not stated)
-- reply 95% (active)

-- ask Return reported growth inhibition; argument: CN(C)c1ccc(C2CC(C)(N3CCCC3)Oc3cc4c(cc32)OCO4)cc1 (configuration not stated)
-- reply 43% (inactive)

-- ask Return reported growth inhibition; argument: COc1cc2c(Cc3ccc(OC)c(OC)c3)[n+](Cc3ccccc3)ccc2cc1NCc1ccccc1
-- reply 99% (active)

-- ask Return reported growth inhibition; argument: Cc1nc(-c2ccc(N=Cc3ccc(N(CCOS(C)(=O)=O)CCOS(C)(=O)=O)cc3)cc2)cs1
-- reply 17% (inactive)

-- ask Return reported growth inhibition; argument: CC(Cc1ccccc1)NN1CCOC(c2ccccc2)C1C (configuration not stated)
-- reply 78% (active)

-- ask Return reported growth inhibition; argument: O=C1c2ccc(S(=O)(=O)O)cc2C(=O)c2ccc(S(=O)(=O)O)cc21
-- reply 36% (inactive)

-- ask Return reported growth inhibition; argument: Cc1cc(I)ccc1NC(=S)Nc1ccccc1F
-- reply 41% (inactive)

-- ask Return reported growth inhibition; argument: O=C(CCCl)Nc1ccc(CCC(=O)c2ccccc2NC(=O)CCCl)cc1
-- reply 59% (inactive)

-- ask Return reported growth inhibition; argument: CCN(CC)C(=S)N/N=C(\C)c1cccc(C)n1
-- reply 99% (active)

-- ask Return reported growth inhibition; argument: CCOC(=O)C(NC(=O)c1ccccc1)[CH](c1ccc(OC)cc1)[Sn]([c]1ccccc1)([c]1ccccc1)[c]1ccccc1 (configuration not stated)
-- reply 88% (active)

-- ask Return reported growth inhibition; argument: CCOc1ccc(C=Nc2ccc(/C=C(\C)C(=O)OCCC(C)C)cc2)cc1
-- reply 99% (active)

-- ask Return reported growth inhibition; argument: COc1ccc(SC2=C(N(C)C)C(=O)c3ccccc3C2=O)cc1
-- reply 92% (active)

-- ask Return reported growth inhibition; argument: O=Cc1cc2c(s1)C(=O)c1sccc1C2=O
-- reply 99% (active)

-- ask Return reported growth inhibition; argument: O=C1C(=Cc2ccccc2O)N=C(c2ccccc2)N1n1c(-c2ccccc2)nc2ccccc2c1=O
-- reply 24% (inactive)

-- ask Return reported growth inhibition; argument: CC1=CC(C2/C(=N/O)C=C(C)CC2(C)C)C(O)C(C)(C)C1 (configuration not stated)
-- reply 96% (active)

-- ask Return reported growth inhibition; argument: CCOc1ccc2c(c1)n([O-])c1cc(Br)ccc1[n+]2=O
-- reply 95% (active)

-- ask Return reported growth inhibition; argument: CCOC(=O)N1C=C(C(=O)OC)C(c2ccccc2)C(C(=O)OC)=C1
-- reply 14% (inactive)

-- ask Return reported growth inhibition; argument: CCC(=O)C(CCN(CC)CC)(CCN(CC)CC)c1ccccc1
-- reply -4% (inactive)

-- ask Return reported growth inhibition; argument: CNC(=S)N(C)C(=S)Nn1c(=O)c(C)nn(C)c1=S
-- reply 50% (inactive)

-- ask Return reported growth inhibition; argument: Oc1c(Cl)cc(Cl)cc1C=NCCSc1ccc(Cl)cc1
-- reply 99% (active)

-- ask Return reported growth inhibition; argument: BrCC(Br)Cc1ccc2c(c1)OCO2 (configuration not stated)
-- reply 60% (inactive)
